Target: Short transient receptor potential channel 4 (Mus musculus)
Experiment: calcium flux activators in TRPC4/5HT1a cells, counter-screen for TRPC4 activator project, cell-based, second counter screen, HEK293 TRPC4/5HT1a, Fluo-4 (AID 434977)
Details: Fluo-4 calcium flux, at 10 µM
Activity calls are given as the source filed them.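 The calls were made as follows: active = calcium signal rise above buffer-control mean plus 5 SD in both duplicates, and also a hit in the primary screen; inactive = the rest.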
Outcome codes: active, inactive

compound="O=[N+]([O-])c1ccc(O)c(C2=NNC(c3ccccc3F)C2)c1 (stereo not given)" category=active
compound=COc1ccc(NS(=O)(=O)c2cccc(C(=O)N3CCN(Cc4cc(OC)ccc4OC)CC3)c2)cc1 category=inactive
compound="CCOC(=O)c1c(NC(=O)C(C)Sc2nnc(C)c(=O)[nH]2)sc2c1CCCC2 (stereo not given)" category=inactive
compound=O=C(CCc1ccccc1)Nc1ccnn1C1CCN(C/C=C/c2ccccc2)CC1 category=inactive
compound="CN(CCc1ccccn1)C1CC(=O)N(c2ccc(Cl)cc2)C1=O (stereo not given)" category=active

* * *

Test: nonspecific potentiation of DAMGO calcium response – cell-based, HEK293 mu-opioid receptor line, counter-screen for TRPC4 allosteric potentiator project, confirmation (AID 449724);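 also: HEK293 cells carrying mu-opioid receptor only with no TRPC4 channel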
Conditions: HEK293 mu-opioid receptor cells, Fluo-4 calcium flux, at 10 µM, compound added before EC20 DAMGO stimulus
Active and inactive are the calls of the source.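 How the source made its calls: active means calcium signal rise more than 3 SD above the low-dose agonist control mean, in both duplicate plates and the primary screen; inactive means the rest.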
Outcome codes: active, inactive

compound=COc1ccc(-c2cc(C3CCN(c4cc(Cl)nc(N)n4)CC3)[nH]n2)cc1 category=inactive
compound=CCN1CCN(c2ccc(S(=O)(=O)N3CCCCC3)cc2NC(=O)c2cccc(OC(F)F)c2)CC1 category=inactive
compound=CCn1c(O)c(N=NC(=O)c2cccc(S(=O)(=O)N3CCCCC3)c2)c2ccccc21 category=inactive
compound="CC1CN(c2nc3c(c(=O)n(Cc4ccc(Cl)c(Cl)c4)c(=O)n3C)n2C)CC(C)O1 (configuration not stated)" category=inactive
compound=c1ccc(CN2CCN(Cc3c[nH]c4ccccc34)CC2)cc1 category=inactive
compound=COCCn1c(SCC(=O)Nc2ccccc2OC)nc2c([nH]c3ccccc32)c1=O category=inactive
compound="N#CC1=C(N)C(C#N)(C#N)C(c2cccnc2)C2CC(c3ccccc3)CC=C12 (configuration not stated)" category=inactive
compound=COC(=O)[C@H](Cc1ccccc1)NC(=O)c1ccc2ccccc2n1 category=inactive
compound="CC12CN3CC(C)(CN(C1)C3c1ccc(Cl)cc1Cl)C2O (configuration not stated)" category=inactive
compound=COc1cc(C2(c3ccc(O)c(OC)c3)C(=O)Nc3c(C)cc(Br)cc32)ccc1O category=inactive
compound=O=[N+]([O-])c1cc(Cl)cc(/C=N/NC(=S)Nc2ccc(S(=O)(=O)N3CCOCC3)cc2)c1O category=inactive
compound="CCCC1(c2ccccc2)NC(=O)N(CC(=O)c2[nH]c(C)c(C(=O)OCC)c2C)C1=O (configuration not stated)" category=inactive
compound=Cc1cccc(C(=O)NC(=S)NNC(=O)Cc2ccccc2)c1 category=inactive
compound="CCN1CCN(c2nc(C)c3c(n2)CC(C)CC3=O)CC1 (configuration not stated)" category=inactive
compound="COc1ccccc1Nc1nc(NCC2CCCO2)c2ccccc2n1 (configuration not stated)" category=inactive
compound=Cc1ccc2cc(CN(CCN3CCOCC3)C(=O)NCc3ccccc3)c(=O)[nH]c2c1C category=inactive
compound=CCOc1ccc2ccccc2c1/C=N/NC(=O)c1cc(C)[nH]n1 category=inactive
compound="CC(NCCC(Cc1ccccc1)c1ccco1)c1ccccc1 (configuration not stated)" category=inactive
compound=O=c1c2ccccc2nc(SCc2ccc([N+](=O)[O-])cc2)n1CCCO category=inactive
compound="CC(=O)c1ccc(OCC(O)CN2CCN(S(=O)(=O)c3c(C)cc(C)cc3C)CC2)cc1 (configuration not stated)" category=inactive
compound="CC(Sc1nc2sc3c(c2c(=O)n1-c1ccccc1)CCCC3)C(=O)O (configuration not stated)" category=inactive
compound=CCCCCCc1cc2cc(-c3nnc(-c4cc(OC)c(OC)c(OC)c4)o3)c(=O)oc2cc1O category=active
compound=Cc1cc2cc(CN(Cc3cccs3)C(=S)NCc3ccco3)c(=O)[nH]c2cc1C category=inactive
compound=FC(F)Oc1ccccc1NC(=S)Nc1cccc(Cl)c1Cl category=inactive
compound="COc1cc(C(=O)N(CCc2ccccc2)C2=CC3CCC(C2)N3C)cc(OC)c1OC (configuration not stated)" category=inactive
compound=COc1ccc(CNC(=O)CN(C)Cc2ccccc2F)cc1OC category=inactive
compound="CC1=C(C(=O)NCCN2CCN(C)CC2)C2(CCC(C)CC2)OC1=O (configuration not stated)" category=inactive
compound=Cc1ccc(S(=O)(=O)c2c(C(=O)c3ccccc3)cnc3cc4c(cc23)OCCO4)cc1 category=inactive
compound="CN(C)c1ccc(NC(=O)C2C3C=CC(C3)C2C(=O)O)cc1 (configuration not stated)" category=inactive
compound="COc1cc2c(cc1OC)C(C)N(CCc1ccc(Cl)cc1)CC2 (configuration not stated)" category=inactive
compound=COc1ccc(CN2CCC(N(CCc3ccccc3)Cc3ccccc3)CC2)c(OC)c1 category=inactive
compound=COc1ccc(C(=O)Nc2nc(-c3cccs3)cs2)cc1 category=inactive
compound=CCn1cc(CN2CCC(n3nccc3NC(=O)CCOc3ccccc3)CC2)c(C)n1 category=inactive
compound=COc1ccc(C(=O)NNC(=S)NC(=O)c2cccs2)cc1 category=inactive
compound="CN(C)C(CNC(=O)c1ccc(S(=O)(=O)NCc2ccco2)cc1)c1ccccc1 (configuration not stated)" category=inactive
compound="CN(C)C(CNC(=O)c1cccc(S(=O)(=O)N(C)C)c1)c1ccccc1 (configuration not stated)" category=inactive
compound=O=C(NC1CCN(Cc2ccccc2)CC1)c1cccc(S(=O)(=O)Nc2cc(C(F)(F)F)ccc2Cl)c1 category=inactive
compound=Cn1c(-c2ccccc2)cnc1NCc1ccccc1 category=inactive
compound="CC(=O)c1c(C)nn(CC(=O)NC2CCCN(Cc3ccc(CC(C)C)cc3)C2)c1C (configuration not stated)" category=inactive
compound=CCCCCCn1c(N2CCN(c3ccccc3)CC2)nc2c1c(=O)n(C)c(=O)n2C category=inactive
compound=O=C(Cn1nc(-c2ccccc2)ccc1=O)NCCN1CCN(Cc2ccccc2)CC1 category=inactive
compound=COc1ccc(/C=C/C(=O)Oc2cc(O)cc(O)c2)cc1 category=inactive
